Every entry's value here was drawn from PubChem BioAssay AID1025.

Recorded activation factor for the following compounds
- assay-system: Cytochrome P450 2C19 (Homo sapiens)
- measurement-description: enhancers of cytochrome P450 2C19 turnover – biochemical, luminescence, primary screen (AID 1025);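 further: 0 = wells with 2.5 mM tranylcypromine and 1 = vehicle-only wells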
- conditions-used: recombinant CYP2C19, luciferin-H EGE luminescence; at 5 µM; active compounds read high; 0 = fully inhibited enzyme, 1 = untreated enzyme
Fewer than 10 of roughly 96,000 compounds were called active. Not all results are given here.
I only need the number, thanks.

compound	activation factor
Cc1ccc(SCCC(=O)OCC(=O)Nc2ncc(Cl)cc2Cl)cc1	0.8
N#Cc1ccc(-c2ccc(F)cc2)nc1Sc1ccccc1	1
FC(F)(F)c1ccc2nnc(-c3c(Cl)cccc3Cl)n2c1	0.7

Prompt: Hi! What's the reported activation factor for O=C(NCCc1ccccc1)c1ccc(NC2=NC3CS(=O)(=O)CC3S2)cc1 (centres undefined) on Cytochrome P450 2C19 (Homo sapiens)?
Response: 0.9
